- Assayed Target: JAK2 (catalytic domain, His-tag) (Homo sapiens)
- Construct: All four purified enzymes contain only the catalytic domain; His (N); purchased Carna Biosciences, Inc; host or cells: baculovirus expression system
- Sequence (O60674 849-1124 limits assumed): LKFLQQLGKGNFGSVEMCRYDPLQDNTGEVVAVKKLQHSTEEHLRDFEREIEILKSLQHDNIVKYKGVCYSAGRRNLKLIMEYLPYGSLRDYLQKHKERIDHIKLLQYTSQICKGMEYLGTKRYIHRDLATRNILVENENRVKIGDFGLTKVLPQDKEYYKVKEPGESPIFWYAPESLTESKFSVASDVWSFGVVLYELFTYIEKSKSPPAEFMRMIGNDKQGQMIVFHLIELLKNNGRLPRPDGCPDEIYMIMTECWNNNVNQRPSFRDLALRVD
- Protocol: JAK kinase assay (HTRF, phosphorylation of TK substrate-biotin), JAK2
- Type: biochemical
- Particulars: ATP at Km (4 μM); read-out: JAK2 kinase inhibitory activity (EC50 indicator)
pEC50: −log10 of the molar value.
The following molecules are listed with their measured pEC50 values.

Solved entries (count: 3):
                                   molecule                            assayed_target  endpoint_name  recorded_result
0  N#CCCC(=O)N1CCN(c2ncnc3[nH]ccc23)CC12CC2  JAK2 (catalytic domain, His-tag) (Homo sapiens)          pEC50           > 7.00
1  O=C(c1cc2ccccc2s1)N1CCN(c2ncnc3[nH]ccc23)CC12CCCC2  JAK2 (catalytic domain, His-tag) (Homo sapiens)          pEC50           < 6.30
2  CCOC(=O)N1[C@@H]2CC[C@H]1CN(c1ncnc3[nH]ccc13)C2  JAK2 (catalytic domain, His-tag) (Homo sapiens)          pEC50           > 7.00

Please find the next molecule below.
# pEC50 of O=C(c1c[nH]c2ccccc12)N1CCN(c2ncnc3[nH]ccc23)CC12CC2 = > 7.00
